Reference for the values: patent US11214803B2

tested on: Yap1 mRNA; assay: Dose-dependent inhibition of human Yap1 in SNU-449 cells (Example 9, RTS36584); assay type: cell-based; settings: 500.0 nM, free uptake, approximately 48 hours
Strand notation (5' to 3'): a small letter for the sugar, then the base; units joined by * are phosphorothioate-linked, units joined directly phosphodiester-linked; [ ] holds rarer units or linkages, { } end groups; capitals alone tell only the bases. e = 2'-O-(2-methoxyethyl) (MOE); k = constrained ethyl (cEt); [5mC] = 5-methylcytosine; d = 2'-deoxy (DNA); m = 2'-O-methyl
Below: a set of entries, each annotated with reported % UTC (Yap1 mRNA).
Give the quantity in % UTC, number only.

Example substances with recorded % UTC (Yap1 mRNA):
1. 1198406 (kG*d[5mC]*dT*dT*dT*dG*dG*dA*dA*dG*dA*kT*e[5mC]*kT*eG*kA; antisense) [compound 1198406]; 31
2. 1198356 (kT*kA*kA*dA*dG*dT*dG*dT*dA*dT*dG*dT*k[5mC]*eA*kG*eA; antisense) [compound 1198356]; 7
3. 1198290 (kT*kG*kG*dA*dA*dA*dT*dT*dG*dT*d[5mC]*dT*k[5mC]*eA*kT*eG; antisense) [compound 1198290]; 20
4. 1198611 (kA*kG*kT*dG*dT*dA*dT*dG*dT*d[5mC]*dA*dG*kA*kA*kG*eA; antisense) [compound 1198611]; 4
5. 1197213 (kT*kG*kT*dA*dT*dG*dT*d[5mC]*dA*dG*dA*dA*dG*kA*kG*kT; antisense) [compound 1197213]; 14
6. 1200798 (kT*kA*kT*dT*dA*mG*dA*dG*dT*dA*dT*dG*dT*kG*kG*k[5mC]; antisense) [compound 1200798]; 17

Attention now shifts to the item below.
Entry 1198550 (kA*kT*kA*dT*dG*dG*dA*dA*dA*dT*dT*dG*kT*k[5mC]*kT*e[5mC]) [compound 1198550] , % UTC (Yap1 mRNA) reported as 30

---

test system: Yap1 mRNA; assay: Antisense inhibition of human Yap1 in A-431 cells by cEt gapmers, single dose (Example 2, RTS4814); assay type: cell-based; conditions: Table 5; A-431 cells, 5,000 cells per well, free uptake, 2,000 nM modified oligonucleotide, approx. 48 hours; RTS4814; normalized to RIBOGREEN; Yap1 mRNA relative to untreated control cells
Strand notation (5' to 3'): a small letter for the sugar, then the base; units joined by * are phosphorothioate-linked, units joined directly phosphodiester-linked; [ ] holds rarer units or linkages, { } end groups; capitals alone tell only the bases. k = constrained ethyl (cEt); [5mC] = 5-methylcytosine; d = 2'-deoxy (DNA)
Below: a set of entries, each annotated with reported YAP1 (% UTC).
Give the quantity in % UTC, number only.

1) 716458 (kA*kA*kG*d[5mC]*dA*dG*dG*dG*dA*dA*dA*d[5mC]*d[5mC]*kT*kA*kA; antisense) [Compound 716458]; 94
2) 716497 (kA*kG*k[5mC]*dA*dG*d[5mC]*dT*dT*dT*dT*dG*d[5mC]*d[5mC]*kA*kG*kG; antisense) [Compound 716497]; 65

Entry 716473 (k[5mC]*kT*kA*dT*dA*dA*dA*dG*d[5mC]*dT*dT*dA*dT*kT*kT*k[5mC]; antisense) [Compound 716473] , YAP1 (% UTC) reported as 104

Entry 716407 (k[5mC]*kT*kT*dA*dG*dT*d[5mC]*d[5mC]*dA*d[5mC]*dT*dG*dT*k[5mC]*kT*kG; antisense) [Compound 716407] , YAP1 (% UTC) reported as 35

Entry 716422 (kA*kG*kT*dA*dT*d[5mC]*dT*dT*dG*d[5mC]*dT*dG*dG*kA*k[5mC]*kG; antisense) [Compound 716422] , YAP1 (% UTC) reported as 39

Entry 716356 (k[5mC]*kG*kA*dG*dG*dT*dG*dG*dA*dG*dA*dA*dG*k[5mC]*kG*kG; antisense) [Compound 716356] , YAP1 (% UTC) reported as 112

---

test system: Yap1 mRNA; assay: Dose-dependent inhibition of human Yap1 in A-431 cells (Example 7, 10,000 cells per well, RTS36584); format: cell-based; conditions: Table 58, 62.5 nM, free uptake, A-431 cells 10,000 cells per well, 48 hours
Strand notation (5' to 3'): a small letter for the sugar, then the base; units joined by * are phosphorothioate-linked, units joined directly phosphodiester-linked; [ ] holds rarer units or linkages, { } end groups; capitals alone tell only the bases. k = constrained ethyl (cEt); [5mC] = 5-methylcytosine; d = 2'-deoxy (DNA)
Value type: Yap1 mRNA, % UTC (% UTC)
Give the quantity in % UTC, number only.

1) 958752 (kG*kA*kA*dT*dT*dT*dT*dT*dA*dG*dT*d[5mC]*d[5mC]*kA*kG*kT; antisense) [compound 958752]; 66
2) 958472 (kT*k[5mC]*k[5mC]*dT*dT*dA*dG*dA*dT*d[5mC]*d[5mC]*dT*dT*k[5mC]*kA*k[5mC]; antisense) [compound 958472]; 63
3) 958457 (antisense kG*kT*k[5mC]*dG*dA*dA*dG*dA*dT*dG*d[5mC]*dT*dG*kA*kG*k[5mC]) [compound 958457]; 50
4) 958807 (kT*k[5mC]*kA*dT*dT*dG*dT*dA*dG*dT*d[5mC]*dT*dG*kT*k[5mC]*kT; antisense) [compound 958807]; 65
5) 958537 (k[5mC]*kA*kG*dG*dG*dT*d[5mC]*dA*dA*dT*dT*dT*dT*k[5mC]*kA*kG; antisense) [compound 958537]; 56

Attention now shifts to the item below.
Entry 958587 (kG*kG*kT*dG*dA*d[5mC]*dT*dG*dA*dA*dA*d[5mC]*dT*k[5mC]*kT*kA; antisense) [compound 958587] , Yap1 mRNA, % UTC reported as 49

---

assay: Tolerability in CD-1 mice, plasma chemistry markers (Example 15); assay type: in vivo; details: male CD-1 mice, 50 mg/kg s.c. twice a week for four weeks (8 treatments), day 26
Strand notation (5' to 3'): a small letter for the sugar, then the base; units joined by * are phosphorothioate-linked, units joined directly phosphodiester-linked; [ ] holds rarer units or linkages, { } end groups; capitals alone tell only the bases. k = constrained ethyl (cEt); [5mC] = 5-methylcytosine; d = 2'-deoxy (DNA)
Below: a set of entries, each annotated with reported AST.
Give the quantity in U/L, number only.

1) 715487 (kA*kT*kT*dA*d[5mC]*dT*dT*d[5mC]*dA*dT*dA*dG*d[5mC]*kT*kT*kA) [compound 715487]; 113
2) 716454 (antisense k[5mC]*kG*kA*dG*dA*dT*dT*dT*dA*dA*dA*dT*dA*kA*kG*kG) [compound 716454]; 56
3) 715483 (k[5mC]*kT*k[5mC]*dT*dT*dT*dG*dG*dA*dA*dA*d[5mC]*d[5mC]*kA*kT*kT) [compound 715483]; 125

Attention now shifts to the item below.
Entry 1074461 (kG*kA*kA*dA*dT*dT*dG*dT*d[5mC]*dT*d[5mC]*dA*dT*kG*k[5mC]*k[5mC]) [compound 1074461] , AST reported as 865

---

tested on: Yap1 mRNA; experiment: Antisense inhibition of human Yap1 in A-431 cells by cEt gapmers, single dose (Example 3, RTS36584); format: cell-based; conditions: Table 10; A-431 cells, 5,000 cells per well, free uptake, 2,000 nM oligonucleotide, approx. 48 hours; primer probe set RTS36584; Yap1 mRNA normalized to RIBOGREEN, percent of untreated control
Strand notation (5' to 3'): a small letter for the sugar, then the base; units joined by * are phosphorothioate-linked, units joined directly phosphodiester-linked; [ ] holds rarer units or linkages, { } end groups; capitals alone tell only the bases. k = constrained ethyl (cEt); [5mC] = 5-methylcytosine; d = 2'-deoxy (DNA)
Below: a set of entries, each annotated with reported YAP1 (% UTC).
Report as: number unit

Example substances with recorded YAP1 (% UTC):
1. 958557 (k[5mC]*kA*k[5mC]*dA*dA*d[5mC]*d[5mC]*dA*dA*d[5mC]*dT*dA*dT*kT*kA*k[5mC]; antisense) [Compound 958557]; 10 % UTC
2. 958452 (antisense k[5mC]*kT*k[5mC]*d[5mC]*dA*dG*dG*dT*d[5mC]*dG*dG*dT*d[5mC]*kT*k[5mC]*k[5mC]) [Compound 958452]; 26 % UTC
3. 958787 (antisense kT*kG*kG*dG*d[5mC]*dA*dA*dA*dG*dT*dT*d[5mC]*d[5mC]*kT*k[5mC]*kT) [Compound 958787]; 67 % UTC

Entry 958607 (antisense k[5mC]*kA*kA*d[5mC]*dA*dT*dG*d[5mC]*dT*dT*dG*d[5mC]*dG*kA*kG*kG) [Compound 958607] , YAP1 (% UTC) reported as 11 % UTC

Entry 958807 (kT*k[5mC]*kA*dT*dT*dG*dT*dA*dG*dT*d[5mC]*dT*dG*kT*k[5mC]*kT; antisense) [Compound 958807] , YAP1 (% UTC) reported as 3 % UTC

Entry 958542 (kT*kA*kT*dA*dG*dT*dA*dT*dT*d[5mC]*dT*dA*dT*k[5mC]*k[5mC]*kA; antisense) [Compound 958542] , YAP1 (% UTC) reported as 4 % UTC
